System: SK-MEL-28 melanoma
assayInfo: NCI tumour cell line growth inhibition, 48 h
# TGI per record follows

Some entries whose results are on file:
- molecule: "COC(=O)[C@H]1C=C[C@H](OC2OC(COC(C)=O)C(OC(C)=O)C(OC(C)=O)C2OC(C)=O)n2c(=O)n(-c3ccccc3)c(=O)n21 (stereo partly specified)"
  experimentalSystem: "SK-MEL-28 melanoma"
  val: "8.63 µM"
- molecule: "COc1ccc(NC2=C(Br)C(=O)C(C)=C(C)C2=O)cc1"
  experimentalSystem: "SK-MEL-28 melanoma"
  val: "4.76 µM"
- molecule: "FC(F)=C(c1ccc(-c2ccc(Cl)cc2)cc1)C(F)(F)F"
  experimentalSystem: "SK-MEL-28 melanoma"
  val: "28.4 µM"

Return reported TGI. Input molecule: CCc1cc(=O)n(/C(C)=C/c2ccccc2)n1C
> 100 µM

Return reported TGI. Input molecule: CN1CCN(C)C1c1cccc(C2N(C)CCN2C)c1
> 100 µM

Return reported TGI. Input molecule: COC(=O)C1=C(C)N2[C@H](C(=O)O)CS[C@@]2(C)[C@H](C(=O)OC)[C@H]1c1cccc([N+](=O)[O-])c1
> 100 µM

---

Tested on: 786-0 renal
assayInfo: NCI tumour cell line growth inhibition, 48 h
quantityKind: TGI (µM)
Answer in µM, number only, no unit symbol.

- molecule: "COC(=O)NC/C=C\\c1nc(CC/C=C\\C(=O)OC2CC3CC(=O)O[C@@H](/C=C/CC(C)C)C[C@@H]4CCC(C)C(C[C@@H](OC)CC(C2)O3)O4)co1 (stereo not given in full)"
  valueUnits: "µM"
  TGI: 39.9

API: the following record is the query input.
Return reported TGI. Input molecule: O=c1oc2ccccc2c2nc3ccccc3cc12
80.4

---

Test system: NCI-H522 lung
assayInfo: NCI tumour cell line growth inhibition, 48 h
quantityKind: TGI

- molecule: "O=c1c2cc3c(=O)n(CCc4ccccc4CO)c(=O)c3cc2c(=O)n1CCc1ccccc1CO"
  experimentalSystem: "NCI-H522 lung"
  val: "> 100 µM"
- molecule: "COc1cc(/C=C/C(=N\\NC(=O)c2ccccc2)c2sc(Nc3ccc(Cl)c(Cl)c3)nc2C)ccc1O"
  experimentalSystem: "NCI-H522 lung"
  val: "47.6 µM"
- molecule: "Cn1c(N)nc2c(nc(OCc3ccccc3)n2C2OC(CO)C(O)C2O)c1=O (stereo not drawn)"
  experimentalSystem: "NCI-H522 lung"
  val: "> 100 µM"
- molecule: "NS(=O)(=O)c1ccc(NC(=O)c2cccc3c(=O)c4ccccc4[nH]c23)cc1"
  experimentalSystem: "NCI-H522 lung"
  val: "65.4 µM"
- molecule: "Cc1ccc(-c2nc(C(Cl)Cl)n3nc(-c4ccccc4)cc3n2)cc1"
  experimentalSystem: "NCI-H522 lung"
  val: "> 100 µM"

Return reported TGI. Input molecule: COc1ccc(C(=O)C(C(=O)CCC(=O)Nc2cccc(C(F)(F)F)c2)c2ccccc2)cc1 (stereo not drawn)
> 100 µM

Return reported TGI. Input molecule: CNC(=O)c1ccc(-c2cnc3ncc(Cc4ccc5ncccc5c4)n3n2)cc1F
> 100 µM

Return reported TGI. Input molecule: C=CC(=O)Nc1cccc(Nc2nc(Nc3ccc(OCCOC)cc3)ncc2F)c1
8.14 µM
